Target: T1, SNTB1, Q13884
T1 sequence (Q13884 107-205, limits assumed, looked up): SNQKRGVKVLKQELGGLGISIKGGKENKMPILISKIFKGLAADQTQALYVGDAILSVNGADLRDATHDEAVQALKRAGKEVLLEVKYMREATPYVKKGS
Assay: holdup assay
Parameters: key: below the threshold = too weak to quantify, mostly under pKd 3.1 to 4
Details: plain residues with an end cap or a label only (N-terminal biotin on a linker: ttds)
Hi, to clarify the labels: Fulfilled covers pKd from 5 upward, Not fulfilled covers anything below 5.

Example entries begin here.
{"columns": ["BINDER", "CLASSIFICATION"],
 "data": [
  ["EMDRRPATVV [PLCB4, Q15147]", "Not fulfilled"],
  ["SSLQSLETSV [ATP2B4, P23634]", "Fulfilled"],
  ["RLPKIKETTV [FRMPD4, Q14CM0]", "Fulfilled"],
  ["NDPAWDETNL [ARHGEF7, Q14155;Q14155-1]", "Not fulfilled"],
  ["RPLPRKVSQL [DOCK4, Q8N1I0]", "Not fulfilled"],
  ["RLQRRRETQV [HPV18-E6, P06463]", "Fulfilled"]
]}

Query: In plain terms: is recorded pKd at least 5 for QRQARSETLV [HPV59-E6, Q81964] ?
Result: Not fulfilled
